# EXPERIMENT_DESCRIPTION: survival after telomere uncapping, modulators, primary screen, cell-based (AID 1259312);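 further: virus expresses mutant telomerase RNA that uncaps telomeres and kills cells; compound added 2 days after infection so exposure lasts 3 days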
# CONDITION_NOTES: HCT116 + Ad-hTR-mut, MTT, 5 d; at 10 µM, stronger effect = higher value
About 200 (4.4%) of roughly 4,500 compounds were called active. Shown is part of a subset that was picked to be rich in actives.
OUTCOME_MEASURE: fold change
Form: value (number only, do not type unit).

Qu. What value of fold change has been recorded for this entry: Cn1nccc1C(=O)Nc1nc2ccccc2s1
Ans. -1.5

Qu. Requested read-out: fold change. Entry: O=c1oc(-c2cccs2)nc2cc([N+](=O)[O-])ccc12
Ans. 1.07

Qu. Return reported fold change; argument: O=C(Nc1nonc1NC(=O)c1ccc2c(c1)OCO2)c1ccc2c(c1)OCO2
Ans. -1.22

Qu. Any idea what fold change was measured for O=[N+]([O-])c1ccc2c(c1)Cc1cc([N+](=O)[O-])ccc1-2 ?
Ans. -1.19

Qu. // lookup fold change for CN1CCC2(CC1)C(C#N)=C(O)NC1=C2C(=O)CC(C)(C)C1
Ans. -1.33

Qu. Look up fold change: O=C1N=C(N2CCOCC2)S/C1=C\C1=Cc2ccccc2OC1
Ans. -1.34

Qu. I'd like to know its fold change. The compound in question is NC(Cc1cc(F)ccc1F)C(=O)O (stereo unspecified)
Ans. -3.72

Qu. Fill in: fold change of CC(Sc1nnc(Cc2ccccc2)n1C1CCCCC1)c1nc(N)nc(N2CCCc3ccccc32)n1 (stereo unspecified) is ___
Ans. -1.7

Qu. Item under review: COCCCN1C(=O)/C(=C/c2cccs2)SC1=S . Reported fold change?
Ans. -1.09

Qu. What does the record list as fold change for Cc1csc(NC(=O)c2ccnn2C)n1 ?
Ans. 1.09

Qu. Could you share which fold change value was measured for S=c1[nH]nc(Cc2cccc3ccccc23)o1 ?
Ans. -2.84

Qu. // lookup fold change for Cn1nccc1C(=O)O
Ans. 3.48

Qu. Using the record for C1=NC(Cc2cccc3ccccc23)NC1 (stereo unspecified) , report its fold change.
Ans. 4.23

Qu. Consider the compound shown here: OCC1OC(OC2OC(CO)C(O)C(O)C2O)C(O)C(O)C1O (stereo unspecified) What is its recorded fold change?
Ans. -1.63

Qu. # fold change lookup, item OC[C@@H]1O[C@H](O[C@H]2O[C@H](CO[C@H]3O[C@H](CO)[C@H](O)[C@H](O)[C@H]3O)[C@@H](O)[C@H](O)[C@H]2O)[C@H](O)[C@H]1O
Ans. 2.81

Qu. I am curious: what fold change value has been reported for Cc1nccn1CCC1CCNCC1 ?
Ans. 3.27

* * *

# EXPERIMENT_DESCRIPTION: survival after telomere uncapping, modulators, primary screen, cell-based (AID 1259312);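 further: virus expresses mutant telomerase RNA that uncaps telomeres and kills cells; compound added 2 days after infection so exposure lasts 3 days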
# CONDITION_NOTES: HCT116 + Ad-hTR-mut, MTT, 5 d; at 10 µM, stronger effect = higher value
The campaign covered roughly 4,500 compounds. About 200 (4.4%) were called active. The entries come from a sample that favours actives as a whole.
Record form. Attribute: fold change. Fill in for each entry.
// keep it numeric: no unit symbol after the value

Qu. Please report the recorded fold change for NC(=O)c1cc2ccccc2o1 .
Ans. 2.76

Qu. Sample CCc1ccc(C2C(C#N)=C(N)OC3=C2C(=O)CCC3)s1 (centres undefined) — what was its fold change?
Ans. 1.35

Qu. Query: fold change; subject: COC(=O)c1cc2cc(Br)ccc2o1
Ans. -2.17

Qu. I'd like to know its fold change. The compound in question is Nc1cc2ccccc2cc1N
Ans. -1.17

Qu. Quick check: fold change of CN(C)C(=O)CSc1nnc(N)s1 ?
Ans. 3.85

Qu. Item under review: N#CCN(CC#N)C(=O)c1ccco1 . Reported fold change?
Ans. -1.86

Qu. Given CN(C)c1ccc(/C=N/c2nccs2)cc1 , state its recorded fold change.
Ans. -1.55

Qu. For the compound shown here, CCN(C(=O)c1cccs1)C1CCCCC1 , give the reported fold change.
Ans. -1.05

Qu. Look up fold change for this compound: O=S(=O)(c1ccc(Cl)cc1)N1CCc2ccccc21
Ans. 4.39

* * *

# EXPERIMENT_DESCRIPTION: survival after telomere uncapping, modulators, primary screen, cell-based (AID 1259312);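 further: virus expresses mutant telomerase RNA that uncaps telomeres and kills cells; compound added 2 days after infection so exposure lasts 3 days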
# CONDITION_NOTES: HCT116 + Ad-hTR-mut, MTT, 5 d; at 10 µM, stronger effect = higher value
Out of some 4,500 compounds screened, about 200 (4.4%) were called active. Shown is part of a subset that was picked to be rich in actives.
OUTCOME_MEASURE: fold change

Qu. What value of fold change has been reported for the following compound? CCC(C)C(NC(C)=O)C(=O)O (stereo not given)
Ans. 1.28 (inactive)

Qu. Give its fold change value. Item: O=C1CC(=O)N(c2ccc(Br)cc2)N1
Ans. -1.32 (inactive)

Qu. # input compound: CC(Sc1ccccn1)c1nc(N)nc(N2CCCc3ccccc32)n1 (stereo not given) ; wanted: its fold change
Ans. -4.94 (inactive)

Qu. Fill in the blank: the reported fold change of ClC(Cl)(Cl)C(c1ccc(Br)cc1)c1ccc(Br)cc1 is ____.
Ans. 3.49 (active)

Qu. Given the entry O=S1(=O)CCC(SCc2nnc(-c3ccccc3)o2)C1 (stereo not given) , report its measured fold change.
Ans. -1.78 (inactive)

Qu. // fold change lookup, key: CCOC(=O)c1c(NC(=O)CCl)sc2c1CCN(C(=O)OCC)C2
Ans. -1.2 (inactive)

Qu. Look up fold change: COc1ccc(-c2cc(=O)c3ccc(O)cc3o2)cc1
Ans. -1.7 (inactive)

Qu. For the compound O=C(NC1CCCCCC1)C1CC1 , what fold change is on record?
Ans. -2.47 (inactive)

Qu. Dear colleague, I am looking for the recorded fold change of the following compound: CCCCCCCNC(=O)c1ccco1
Ans. 1.1 (inactive)

Qu. Report fold change for O=C(Nc1sc2c(c1C(=O)Nc1ccc(Br)cc1)CCC2)c1cccs1 please.
Ans. 1.12 (inactive)

Qu. // lookup fold change for O=C(COc1ccc(Br)cc1)NCC1CCCO1 (stereo not given)
Ans. -1.54 (inactive)

Qu. Which value of fold change has been reported for CN(Cc1cccs1)C(=S)SCCO in the records?
Ans. 1.27 (inactive)

Qu. Looking for the measured fold change of O=C(O)C1=C/C(=C(/c2ccccc2)c2cc(C(=O)O)c(O)c3ccccc23)c2ccccc2C1=O , can you help?
Ans. 1.42 (inactive)

Qu. Need fold change, item N#CCC(c1ccccc1)C(C#N)c1ccc(Br)cc1 (stereo not given)
Ans. -1.3 (inactive)

Qu. Would you kindly share the measured fold change for c1ccc2cc3[nH]c(CN4CCOCC4)nc3cc2c1 ?
Ans. 1.25 (inactive)

Qu. Data request, read-out fold change, for COc1ccc(C2C=COc3n[nH]c(-c4ccccc4)c32)cc1OC (stereo not given)
Ans. 2.04 (inactive)

Qu. Form field: reported fold change of CC(C)NC(=O)CC(=O)NN=C1CCCC1
Ans. 1.85 (inactive)

Qu. Field request: fold change | item: O=C(Nc1ccc(Br)cc1Br)C(Cl)Cl
Ans. -6.77 (inactive)

Qu. Please report the recorded fold change for COc1cccc(OC)c1-c1noc(CSc2nc3ccccc3o2)n1 .
Ans. -1.15 (inactive)

Qu. For COc1ccc(N/C=C(\C#N)C(N)=S)cc1OC , what is its reported fold change?
Ans. -3.68 (inactive)

Qu. # get_value(readout='fold change', item= CCOC(=O)c1ccc(C2C(C#N)=C(N)Oc3cc(C)oc(=O)c32)o1 (stereo not given) )
Ans. -1.07 (inactive)

Qu. # lookup: fold change of O=c1cc(-c2ccc(O)c(O)c2)oc2cc(OC3OC(CO)C(O)C(O)C3O)cc(O)c12 (stereo not given)
Ans. -1.76 (inactive)

Qu. Tell me the measured fold change of O=C(O)Cn1cc([N+](=O)[O-])cn1 , please.
Ans. 2.02 (inactive)

Qu. Could you tell me which fold change is on file for O=C(O)/C=C/C(=O)NC1CCCCNC1=O (stereo not given) ?
Ans. -1.55 (inactive)

Qu. Returns the measured fold change for the input compound. Input: C=CCN1C(=O)/C(=C2\SC(=S)N(CCC)C2=O)c2ccccc21
Ans. -1.1 (inactive)

Qu. Find the recorded fold change belonging to Cc1cccn2c(=O)c(C=O)c(Nc3cccc(Cl)c3)nc12 and report it.
Ans. -1.44 (inactive)

Qu. Fill blank: measured fold change of the compound O=S(=O)(NCc1ccc2c(c1)OCO2)c1ccc2oc3ccccc3c2c1 is ____.
Ans. 1.03 (inactive)

Qu. Reported fold change for C=CC[C@H]1CC=C[C@H](CC=C)N1C(C)=O : what is it?
Ans. -1.11 (inactive)

Qu. Which fold change is reported for this compound? Fc1ccc(-c2nc3sc(-c4ccc(F)cc4)nc3s2)cc1
Ans. -2.41 (inactive)

Qu. Please report the recorded fold change for CNCC1COCCO1 (stereo not given) .
Ans. -2.02 (inactive)

Qu. Entry COc1nc(-c2ccccc2)cc(-c2ccccc2)c1C#N : reported fold change = ?
Ans. 1.46 (inactive)

Qu. For the compound shown here, Cc1cc(C)c(C#N)c(SCc2cc(=O)[nH][nH]2)n1 , give the reported fold change.
Ans. 3.11 (active)

Qu. If you can, please state the reported fold change value of O=S(=O)(Nc1ccc(S(=O)(=O)Nc2ccccc2Cl)cc1)c1ccc2c(c1)OCCO2 .
Ans. -1.07 (inactive)

Qu. Fill in the blank: the reported fold change of N#Cc1c(N)nc2c(c1-c1cccnc1)CCCCC2 is ____.
Ans. -6.99 (inactive)

Qu. What does the record list as fold change for O=C(O)CC1CCCCO1 (stereo not given) ?
Ans. -1.75 (inactive)

Qu. Param item = S=c1[nH]nc(-c2cccs2)n1-c1ccccc1 ; retrieve measured fold change.
Ans. -1.22 (inactive)

Qu. Report fold change for CCOC(=O)c1c(NC(=O)C23CC4CC(CC(C4)C2)C3)sc2c1CCCCC2 please.
Ans. -1.2 (inactive)

Qu. # input compound: Cc1cc2c(c(=O)o1)C(c1ccncc1)C(C#N)=C(N)O2 (stereo not given) ; wanted: its fold change
Ans. 3.96 (active)

Qu. # fold change lookup, item Cn1c(=O)n(C)c2cc(S(=O)(=O)N3CCCCC3)ccc21
Ans. -4.28 (inactive)

Qu. Recorded fold change for O=C(O)C1CCS(=O)(=O)C1 (stereo not given) , please?
Ans. 2.36 (inactive)

Qu. Could you share which fold change value was measured for Cc1cc(-c2ccco2)c(C#N)c(SCC(=O)C(F)(F)F)n1 ?
Ans. 1.03 (inactive)

Qu. So what's the measured fold change for this one? CN(C)c1nc(N)nc(CN(C)S(=O)(=O)c2ccccc2)n1
Ans. -1.09 (inactive)

Qu. Look up fold change for this compound: Cc1[nH]nc2c1C(c1ccncc1)C(C#N)=C(N)O2 (stereo not given)
Ans. 2.49 (inactive)

Data origin: PubChem BioAssay AID1259312
